# key: entry, value: pIC50
target: human DGKζ (Homo sapiens (Human), UniProt Q13574); experiment: DGKζ assay (detergent/lipid micelle substrate); type: biochemical; settings: detergent/lipid micelle substrate; read-out: DGKζ IC50
Sequence (Q13574 other isoform, or with tags, fused parts or gaps): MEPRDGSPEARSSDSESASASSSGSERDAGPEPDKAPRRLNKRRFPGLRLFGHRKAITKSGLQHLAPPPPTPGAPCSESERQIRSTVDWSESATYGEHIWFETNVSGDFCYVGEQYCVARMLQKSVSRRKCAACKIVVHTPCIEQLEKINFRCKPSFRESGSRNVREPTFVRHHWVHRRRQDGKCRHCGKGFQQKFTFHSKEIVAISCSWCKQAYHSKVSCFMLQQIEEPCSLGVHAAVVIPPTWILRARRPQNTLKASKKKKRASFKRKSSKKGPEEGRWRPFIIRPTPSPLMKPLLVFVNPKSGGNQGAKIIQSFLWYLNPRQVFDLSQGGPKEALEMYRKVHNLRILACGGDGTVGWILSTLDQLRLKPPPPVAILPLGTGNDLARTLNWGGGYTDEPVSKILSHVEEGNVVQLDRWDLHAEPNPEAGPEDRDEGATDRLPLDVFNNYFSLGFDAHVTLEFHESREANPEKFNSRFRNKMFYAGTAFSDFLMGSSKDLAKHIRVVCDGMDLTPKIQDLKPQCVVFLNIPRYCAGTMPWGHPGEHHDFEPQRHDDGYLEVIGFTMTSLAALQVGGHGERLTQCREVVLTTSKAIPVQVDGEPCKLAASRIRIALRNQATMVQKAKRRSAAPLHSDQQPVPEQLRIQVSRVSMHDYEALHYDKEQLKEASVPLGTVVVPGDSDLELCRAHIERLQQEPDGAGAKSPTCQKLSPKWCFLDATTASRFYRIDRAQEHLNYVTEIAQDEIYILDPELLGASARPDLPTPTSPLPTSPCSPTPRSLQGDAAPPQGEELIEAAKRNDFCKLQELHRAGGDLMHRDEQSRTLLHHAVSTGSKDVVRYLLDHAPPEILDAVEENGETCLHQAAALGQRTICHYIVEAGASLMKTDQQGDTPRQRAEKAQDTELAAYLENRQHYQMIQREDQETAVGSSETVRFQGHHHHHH
# pIC50 is unitless: minus log10 of the molar concentration; print number only

// pIC50 lookup, compound = COc1cc(F)ccc1C(c1ccc(F)cc1)N1CCN(c2c([N+](=O)[O-])c(=O)n(C)c3ccc(Br)nc23)CC1 (single isomer, unassigned) [Example 57] , result: 3.96

Reported pIC50 for COCCn1c(=O)c([N+](=O)[O-])c(N2CCN(C(C)c3ccc(F)cc3)CC2)c2nc(C#N)ccc21 (racemic) [Example 148] was 4.55

Value of pIC50 reported for the compound C#CCn1c(=O)c([N+](=O)[O-])c(N2CCN(C(CC)c3ccc(F)cc3)CC2)c2nc(C#N)ccc21 (single isomer, unassigned) [Example 140] is 6.22

Lab note: measured pIC50 of Cn1c(=O)c([N+](=O)[O-])c(N2CCN(C(c3ccc(F)cc3)c3ccc(F)cc3)CC2)c2nc(Br)ccc21 was 4.80

----------
molecular target: human DGKα (Homo sapiens (Human), UniProt P23743); assay: DGKα LIPGLO assay (extruded liposome substrate); assay type: biochemical
Sequence (P23743 other isoform, or with tags, fused parts or gaps): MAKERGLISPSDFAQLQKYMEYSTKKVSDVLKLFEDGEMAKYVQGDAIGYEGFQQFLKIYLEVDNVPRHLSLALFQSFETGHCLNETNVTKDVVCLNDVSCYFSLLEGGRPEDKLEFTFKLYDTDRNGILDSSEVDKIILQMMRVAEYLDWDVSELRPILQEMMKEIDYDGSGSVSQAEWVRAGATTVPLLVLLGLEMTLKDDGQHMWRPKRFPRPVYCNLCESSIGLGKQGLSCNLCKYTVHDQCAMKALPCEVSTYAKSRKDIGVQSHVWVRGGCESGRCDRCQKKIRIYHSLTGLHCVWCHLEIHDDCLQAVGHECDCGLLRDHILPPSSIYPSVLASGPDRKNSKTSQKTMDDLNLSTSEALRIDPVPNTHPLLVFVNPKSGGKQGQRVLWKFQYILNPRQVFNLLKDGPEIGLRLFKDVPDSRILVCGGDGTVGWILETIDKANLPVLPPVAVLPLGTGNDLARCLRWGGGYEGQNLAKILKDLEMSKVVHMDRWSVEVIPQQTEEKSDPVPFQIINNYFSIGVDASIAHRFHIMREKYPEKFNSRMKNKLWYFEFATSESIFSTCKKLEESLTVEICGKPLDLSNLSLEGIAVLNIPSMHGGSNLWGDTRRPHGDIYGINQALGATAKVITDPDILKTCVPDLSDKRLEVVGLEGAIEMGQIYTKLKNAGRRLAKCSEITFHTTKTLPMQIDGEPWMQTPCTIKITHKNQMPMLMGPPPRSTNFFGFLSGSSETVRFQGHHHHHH
measurementType: IC50 (nM)
Report as a plain number; the unit nM is understood.

Record excerpt, results attached:
{"molecule": "Cn1c(=O)c([N+](=O)[O-])c(N2CCN(C(c3ccc(F)cc3)c3ccccc3O)CC2)c2nc(C#N)ccc21 (single isomer, unassigned) [Example 99]", "measuredOn": "human DGKα (Homo sapiens (Human), UniProt P23743)", "endpointUnit": "nM", "experimentalResult": 720}
{"molecule": "Cn1c(=O)c(C#N)c(N2CCN(C(c3ccc(F)cc3)c3ccc(F)cc3)CC2)c2nc(C#N)ccc21 [Example 217]", "measuredOn": "human DGKα (Homo sapiens (Human), UniProt P23743)", "endpointUnit": "nM", "experimentalResult": 1300}

Now turn to the next molecule.
IC50 reading for COc1cccnc1C(c1ccc(F)cc1)N1CCN(c2c(C#N)c(=O)n(C)c3ccc(C)nc23)CC1 (stereo not drawn) [Example 255] : 1400

----------
biological target: human DGKα (Homo sapiens (Human)); test: biochemical; settings: detergent/lipid micelle substrate; read-out: DGKα IC50
pIC50: −log10 of the molar value.
measurementType: pIC50

{"compound": "COCCn1c(=O)c(C#N)c(N2CCN(C(c3ccc(F)cc3)c3ccc(F)cc3OC)CC2)c2nc(Br)ccc21 (single isomer, unassigned) [Example 116]", "pIC50": "< 3.62"}
{"compound": "CC(c1ccc(F)cc1)N1CCN(c2c(C#N)c(=O)n(CC3CC3)c3ccc(Br)nc23)CC1 (single isomer, unassigned) [Example 164]", "pIC50": "< 3.62"}

Then there is this compound:
Bench note, human DGKα (Homo sapiens (Human)): entry C=CCOc1cccc(C)c1C(c1ccc(F)cc1)N1CCN(c2c([N+](=O)[O-])c(=O)n(C)c3ccc(Br)nc23)CC1 (single isomer, unassigned) [Example 95] , its pIC50 = < 3.62

----------
target: UniProtKB Q13574; assay: DGKζ LIPGLO assay (extruded liposome substrate); assay type: biochemical; settings: extruded liposome substrate; read-out: DGKζ LIPGLO IC50
measurementType: pIC50
// returns pIC50 (minus log10 of molar concentration), number only

Below, 2 compounds whose answers are already recorded.
{"inputSmiles": "Cn1c(=O)c(C#N)c(N2CCN(Cc3cccc(F)c3)CC2)c2nc(Cl)ccc21", "experimentalResult": 4.92}
{"inputSmiles": "Cc1ccc2c(n1)c(N1CCN(Cc3cc(Br)ccc3O)CC1)c(C#N)c(=O)n2C", "experimentalResult": 4.89}

For reference, reported pIC50 for Cc1ccc2c(n1)c(N1CCN(C(c3ccc(F)cc3)c3ccc(F)cc3)CC1)c(C(=O)C(F)(F)F)c(=O)n2C stands at 5.01

----------
Listed below: pIC50 values for each entry.
Biological target: human DGKα (Homo sapiens (Human), UniProt P23743)
Experiment: biochemical
Conditions: detergent/lipid micelle substrate; read-out: DGKα IC50
Protocol: The DGKα and DGKζ reactions were performed using either extruded liposome (DGKα and DGKζ LIPGLO assays) or detergent/lipid micelle substrate (DGKα and DGKζ assays). […] The compound inhibition studies were carried out as follows: 50 nL droplets of each test compound (top concentration 10 mM with 11 point, 3-fold dilution series for each compound) solubilized in DMSO were transferred to wells of a white 1536 well plate (Corning 3725). […] Luminescence was recorded using an EnVision microplate reader. […]
Units for pIC50: none; it is -log10 of a concentration expressed in mol/L.

For orientation, consider the following solved cases.
{"molecule": "Cn1c(=O)c(C#N)c(N2CCN(Cc3cccc(F)c3)CC2)c2nc(Cl)ccc21", "pIC50": 6.80}
{"molecule": "COc1ccc(CN2CCN(c3c(C#N)c(=O)n(C)c4ccc(Cl)nc34)CC2)cc1", "pIC50": 6.49}
{"molecule": "Cn1c(=O)c([N+](=O)[O-])c(N2CCN(C(c3ccccc3)c3ccccc3)CC2)c2nc(C#N)ccc21", "pIC50": 5.72}
{"molecule": "COc1cccc(O)c1CN1CCN(c2c(C#N)c(=O)n(C)c3ccc(Cl)nc23)CC1", "pIC50": 6.21}
{"molecule": "COc1cccc(CN2CCN(c3c(C#N)c(=O)n(C)c4ccc(Cl)nc34)CC2)c1", "pIC50": 6.18}
{"molecule": "Cn1c(=O)c([N+](=O)[O-])c(N2CCN(C(c3ccc(F)cc3)c3ccc(F)cc3)CC2)c2nc(C#N)ccc21", "pIC50": 5.72}

Let's switch to this molecule now.
For record C#CCn1c(=O)c([N+](=O)[O-])c(N2CCN(C(c3ccc(F)cc3)c3ccccc3OC)CC2)c2nc(C#N)ccc21 (racemic) [Example 129] the listed pIC50 is 5.38

----------
target: human DGKζ (Homo sapiens (Human), UniProt Q13574); assay: DGKζ assay (detergent/lipid micelle substrate); assay type: biochemical; details: detergent/lipid micelle substrate; read-out: DGKζ IC50
Please respond with 1 when measured IC50 is strictly beneath 9 µM, and with -1 in all other cases.

Field: example entries. Status: answers known.
{"molecule": "CC(C)C(c1ccc(F)cc1)N1CCN(c2c(C#N)c(=O)n(C)c3ccc(Cl)nc23)CC1 (single isomer, unassigned) [Example 316]", "assignedClass": -1}
{"molecule": "Cn1c(=O)c(C#N)c(N2CCN(Cc3c(O)cccc3Cl)CC2)c2nc(Br)ccc21", "assignedClass": -1}
{"molecule": "Cn1c(=O)c(C#N)c(N2CCN(Cc3ccccc3N)CC2)c2nc(Br)ccc21", "assignedClass": -1}

Q: Item Cn1c(=O)c(C#N)c(N2CCN(Cc3cccc(Cl)c3O)CC2)c2nc(Br)ccc21 : IC50 beneath 9 µM, strictly?
Ans: -1

Q: Dear colleague, could you confirm whether IC50 of Cn1c(=O)c([N+](=O)[O-])c(N2CCN(C(c3ccccc3)c3ccccc3)CC2)c2nc(C#N)ccc21 falls below 9 µM? Thanks.
Ans: 1

Q: Just wondering, is IC50 of O=c1c([N+](=O)[O-])c(N2CCN(C(c3ccccc3)c3ccccc3)CC2)c2ncccc2n1CCC=C(F)F below 9 µM?
Ans: -1

Q: Please indicate whether the reported IC50 of Cc1cc(F)cc(CN2CCN(c3c(C#N)c(=O)n(C)c4ccc(Cl)nc34)CC2)c1 is strictly below 9 µM.
Ans: -1

Q: Hello, is IC50 of the following molecule strictly smaller than 9 µM? COCCCn1c(=O)c([N+](=O)[O-])c(N2CCN(C(c3ccccc3)c3ccccc3)CC2)c2ncccc21
Ans: -1

Q: Please determine if Cc1ccc2c(n1)c(N1CCN(C(c3ccc(F)cc3)c3ccc(F)cc3)CC1)c(Br)c(=O)n2C is below 9 µM in terms of IC50.
Ans: -1

Q: Determine if Cn1c(=O)c(C#N)c(N2CCN(Cc3cc(F)cc(Cl)c3)CC2)c2nc(Cl)ccc21 shows IC50 strictly lower than 9 µM.
Ans: -1

Q: Just wondering, is IC50 of Cn1c(=O)c([N+](=O)[O-])c(N2CCN(C(c3ccc(F)cc3)C3CC3)CC2)c2nc(C#N)ccc21 (single isomer, unassigned) [Example 51] below 9 µM?
Ans: -1

Q: IC50 under 9 µM? Item: COc1ccccc1C(c1ccc(F)cc1)N1CCN(c2c([N+](=O)[O-])c(=O)n(C)c3ccc(C#N)nc23)CC1 (single isomer, unassigned) [Example 20]
Ans: 1

Q: Just wondering, is IC50 of C#CCn1c(=O)c([N+](=O)[O-])c(N2CCN(C(c3ccc(F)cc3)c3ccccc3OC)CC2)c2nc(C#N)ccc21 (racemic) [Example 129] below 9 µM?
Ans: 1

Q: A record lists Cn1c(=O)c(C#N)c(N2CCN(Cc3ccc(C(F)(F)F)c(F)c3)CC2)c2nc(Cl)ccc21 . Is its IC50 below 9 µM?
Ans: -1

Q: IC50 under 9 µM? Item: Cn1c(=O)c([N+](=O)[O-])c(N2CCN(C(c3ccc(F)cc3)C3CC3)CC2)c2nc(C#N)ccc21 (single isomer, unassigned) [Example 50]
Ans: -1

Q: Consider the molecule Cn1c(=O)c(C#N)c(N2CCN(Cc3ccc(OC(F)(F)F)cc3O)CC2)c2nc(Cl)ccc21 . Is its IC50 strictly less than 9 µM?
Ans: -1

Q: Say whether its IC50 is strictly beneath 9 µM. Entry: Cn1c(=O)c([N+](=O)[O-])c(N2CCN(C(c3ccc(F)cc3)c3ccc(F)cc3)CC2)c2nc(C#N)ccc21
Ans: 1

Q: Below 9 µM on IC50? Entry Cc1ccc(F)c(CN2CCN(c3c(C#N)c(=O)n(C)c4ccc(Cl)nc34)CC2)c1
Ans: -1

Q: Is 9 µM strictly greater than the molecule's reported IC50? molecule: C#CCn1c(=O)c(C#N)c(N2CCN(Cc3ccccc3C(F)F)CC2)c2nc(Br)ccc21
Ans: -1

Q: Strictly below 9 µM: is that where IC50 of Cc1ccc(CN2CCN(c3c(C#N)c(=O)n(C)c4ccc(Cl)nc34)CC2)cc1 sits?
Ans: -1

Q: Just wondering, is IC50 of CC(C)C(c1ccc(F)cc1)N1CCN(c2c(C#N)c(=O)n(C)c3ccc(Cl)nc23)CC1 (single isomer, unassigned) [Example 315] below 9 µM?
Ans: -1
